Source: PubChem BioAssay (NCI)

assay: NCI Yeast Anticancer Drug Screen. Data for the mec2-1 strain (AID 157); conditions: S. cerevisiae mec2-1 strain, at 50.0 µM (retest, dose inferred, filed as 5.0), active compounds read high
This is part of a sample that, as a whole, favours compounds with a hit. Of some 79,000 tested, about 15% had one in any assay.

>  <compound>
CC1CCCC[N-]1.CC1CCCC[N-]1.N#C[S-].N#C[S-].[Cd] (stereo not given)

>  <growth inhibition, %>
52

$$$$
>  <compound>
O=C1C=C(N2CC2)C(=O)C=C1N1CC1

>  <growth inhibition, %>
99

$$$$
>  <compound>
COc1ccc(NN=O)nc1

>  <growth inhibition, %>
17

$$$$
>  <compound>
N#CSCC(=O)O (tested in a mixture with another compound)

>  <growth inhibition, %>
4

$$$$
>  <compound>
C[N+](C)(C)CC1Cc2ccccc2C1=O (stereo not given)

>  <growth inhibition, %>
99

$$$$
>  <compound>
N#CC(Cl)(Cl)CCl

>  <growth inhibition, %>
15

$$$$
>  <compound>
O=P(Oc1ccccc1)(Oc1ccccc1)Oc1ccccc1Cl

>  <growth inhibition, %>
-8

$$$$
>  <compound>
COC1CC(OC2C(C)OC(OC3C(C)OC(OC4CCC5(C)C(=CCC6(O)C5CC(OC(=O)c5ccc(O)cc5)C5(C)C(O)(C(C)=O)CCC65O)C4)CC3OC)CC2OC)OC(C)C1O (stereo not given) (tested in a mixture with another compound)

>  <growth inhibition, %>
82

$$$$
>  <compound>
CC(=O)c1cc(CN(CCCl)CCCl)c(O)c(CN(CCCl)CCCl)c1O

>  <growth inhibition, %>
14

$$$$
>  <compound>
NC(=O)Nc1ccc([As](Sc2ccccc2C(=O)O)Sc2ccccc2C(=O)O)cc1

>  <growth inhibition, %>
-1

$$$$

* * *

assay: NCI Yeast Anticancer Drug Screen. Data for the cln2 rad14 strain (AID 165);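 further: 0% = growth equal to vehicle treated cultures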; details: S. cerevisiae cln2 rad14 strain, at 50.0 µM
About 79,000 compounds went through this panel and 15% of them were active in at least one assay; those are over-represented in the sample as a whole. Active and inactive are the calls of the source. Rule as the data show it: active = growth inhibition above about 70%; inactive = the rest.
Classes used: true (1) for active, false (0) for inactive

>  <molecule>
CC12CCC3C(CCC4=CC(=O)CCC43C=O)C1CCC2Oc1ccccc1 (centres undefined)

>  <discreteLabel>
false (0)

$$$$
>  <molecule>
CCCCCCCCCCCCCCCC[As]1c2ccccc2Nc2ccccc21

>  <discreteLabel>
true (1)

$$$$
>  <molecule>
C[C@]12Cc3cnc(-c4ccccc4)nc3C[C@@H]1CC[C@@H]1[C@@H]2CC[C@@]2(C)[C@H]1CC[C@]2(C)O

>  <discreteLabel>
false (0)

$$$$
>  <molecule>
[Co+2].[Co+2].[O-]CCCN=Cc1ccccc1[O-].[O-]CCCN=Cc1ccccc1[O-]

>  <discreteLabel>
false (0)

$$$$
>  <molecule>
NC(=O)c1cc([N+](=O)[O-])cc([N+](=O)[O-])c1

>  <discreteLabel>
false (0)

$$$$
>  <molecule>
CCCCSCCC(N)P(=O)(O)O (centres undefined)

>  <discreteLabel>
false (0)

$$$$
>  <molecule>
COc1cc(/C=C(/C)[N+](=O)[O-])ccc1O

>  <discreteLabel>
true (1)

$$$$
>  <molecule>
O=P(O)(OCCc1ccccc1)Oc1ccccc1O

>  <discreteLabel>
false (0)

$$$$
>  <molecule>
S=C=NCc1ccccc1

>  <discreteLabel>
false (0)

$$$$
>  <molecule>
O=C(CCl)N(CCO)CCO

>  <discreteLabel>
false (0)

$$$$
>  <molecule>
O=[As](O)(O)c1ccc(Cc2ccc([As](=O)(O)O)cc2)cc1

>  <discreteLabel>
true (1)

$$$$
>  <molecule>
CCCCOC1OCN(C2CCCCC2)CC1(C)C (centres undefined)

>  <discreteLabel>
false (0)

$$$$
>  <molecule>
CC(=O)O[C@@H]1[C@@H](O)[C@H]2O[C@@H]3C=C(C)C(=O)[C@@H](O)[C@]3(CO)[C@]1(C)[C@]21CO1

>  <discreteLabel>
false (0)

$$$$
>  <molecule>
O=C(NC1CC1)c1c(O)[nH]c(=S)[nH]c1=O

>  <discreteLabel>
false (0)

$$$$
>  <molecule>
C(#CCN1CCCCCC1)CN1CCCCCC1

>  <discreteLabel>
false (0)

$$$$
>  <molecule>
CCN1CCC(O)(c2ccc(O)cc2)C(C(=O)c2ccc(O)cc2)C1 (centres undefined)

>  <discreteLabel>
false (0)

$$$$
>  <molecule>
Cc1cc(NC2=NCCO2)c2c(c1C)CCCC2

>  <discreteLabel>
false (0)

$$$$
>  <molecule>
O=P(CCl)(Oc1ccc(Cl)cc1)Oc1ccc(Cl)cc1

>  <discreteLabel>
false (0)

$$$$
>  <molecule>
BrC(Br)c1cccc(C(Br)Br)c1

>  <discreteLabel>
false (0)

$$$$
>  <molecule>
O=NN1CCOC1=NC1CCCCC1

>  <discreteLabel>
false (0)

$$$$
>  <molecule>
COCCCNP(=O)(OC(C)C)OC(C)C

>  <discreteLabel>
false (0)

$$$$
>  <molecule>
Cc1cc(OC(=O)N(CCCl)CCCl)c(C(C)C)cc1N=O

>  <discreteLabel>
true (1)

$$$$
>  <molecule>
CCCCCCCCCCC(=O)O.[Pb]

>  <discreteLabel>
false (0)

$$$$
>  <molecule>
CC1(C)N=C(N)N=C(N)N1c1ccc(CCCCc2ccc(S(=O)(=O)F)c(Cl)c2)c(Cl)c1

>  <discreteLabel>
true (1)

$$$$
>  <molecule>
CC1=CC(=O)C=CC1=Nc1ccc(N(CCCl)CCCl)cc1

>  <discreteLabel>
false (0)

$$$$
>  <molecule>
CCC[CH2][Sn]([CH2]CCC)([N]=C=S)[N]=C=S

>  <discreteLabel>
true (1)

$$$$
>  <molecule>
COc1cc(/C=C\[N+](=O)[O-])ccc1O

>  <discreteLabel>
true (1)

$$$$
>  <molecule>
CCN1CCCc2cc3c(C(F)(F)F)cc(=O)oc3cc21

>  <discreteLabel>
false (0)

$$$$
>  <molecule>
NS(=O)(=O)c1ccc([As](=O)(O)c2ccccc2)cc1

>  <discreteLabel>
false (0)

$$$$
>  <molecule>
ClCCN1CCOCC1

>  <discreteLabel>
true (1)

$$$$
>  <molecule>
CN1C(=O)C(C)(C2=CCCCC2)C(=O)NC1=S (centres undefined)

>  <discreteLabel>
false (0)

$$$$
>  <molecule>
CC(=O)c1ccc(-c2ccccc2)cc1

>  <discreteLabel>
false (0)

$$$$
>  <molecule>
CCCNC1=C(C)C(=O)C2=C(C1=O)[C@H](COC(N)=O)[C@]1(OC)[C@@H]3N[C@@H]3CN21

>  <discreteLabel>
false (0)

$$$$
>  <molecule>
S=C(N/N=C/c1ccc(Cl)cc1)NC1CN2CCC1CC2 (centres undefined)

>  <discreteLabel>
false (0)

$$$$
>  <molecule>
O.O.[NH-]C1CCCCC1[NH-].[Pt+2] (centres undefined)

>  <discreteLabel>
false (0)

$$$$
>  <molecule>
CC(=O)Nc1nc(CCl)cs1

>  <discreteLabel>
false (0)

$$$$
>  <molecule>
CCC(C)CC(C)N (centres undefined)

>  <discreteLabel>
false (0)

$$$$
>  <molecule>
CSc1nsc(-c2ccccc2)[s+]1

>  <discreteLabel>
false (0)

$$$$
>  <molecule>
O=c1cccc2n1CC1CNCC2C1 (centres undefined)

>  <discreteLabel>
false (0)

$$$$
>  <molecule>
CN(C(=O)Oc1ccccc1)c1ccc(S(=O)(=O)F)cc1

>  <discreteLabel>
true (1)

$$$$
>  <molecule>
COc1ccc([As+](c2ccccc2)(c2ccccc2)c2ccccc2)cc1

>  <discreteLabel>
true (1)

$$$$
>  <molecule>
C/C=C(\CC)C1(C)C(=O)NC(=O)NC1=O

>  <discreteLabel>
false (0)

$$$$
>  <molecule>
CCOP(=O)(OCC)/C(C#N)=C/c1ccccc1OC

>  <discreteLabel>
false (0)

$$$$
>  <molecule>
N#C[S-].[La+3].c1cnc2c(c1)ccc1cccnc12.c1cnc2c(c1)ccc1cccnc12.c1cnc2c(c1)ccc1cccnc12

>  <discreteLabel>
true (1)

$$$$
>  <molecule>
NC(=NCCCC(NCc1ccccc1)C(=O)O)N[N+](=O)[O-] (centres undefined)

>  <discreteLabel>
false (0)

$$$$
>  <molecule>
CC1C(c2ccccc2)OCCN1C (centres undefined)

>  <discreteLabel>
false (0)

$$$$
>  <molecule>
CC(=O)C(CN(CC(C)C)CC(C)C)C(c1ccccc1)c1c(O)c2ccccc2oc1=O (centres undefined)

>  <discreteLabel>
true (1)

$$$$
>  <molecule>
COC(=O)CNP(=O)(NCC(=O)OC)N(CCCl)CCCl

>  <discreteLabel>
false (0)

$$$$
>  <molecule>
COC1=C(OC)C23CCc4ccc(OC)c(O)c4C2(CCN3)CC1=O (centres undefined)

>  <discreteLabel>
false (0)

$$$$
